# assayed_target: mouse TMEM16A mutant N546A (Mus musculus, UniProt Q8BHY3, N546A)
# Construct: expressed in transfected cells; host or cells: HEK293T
# Sequence (Q8BHY3 1-960 N546A): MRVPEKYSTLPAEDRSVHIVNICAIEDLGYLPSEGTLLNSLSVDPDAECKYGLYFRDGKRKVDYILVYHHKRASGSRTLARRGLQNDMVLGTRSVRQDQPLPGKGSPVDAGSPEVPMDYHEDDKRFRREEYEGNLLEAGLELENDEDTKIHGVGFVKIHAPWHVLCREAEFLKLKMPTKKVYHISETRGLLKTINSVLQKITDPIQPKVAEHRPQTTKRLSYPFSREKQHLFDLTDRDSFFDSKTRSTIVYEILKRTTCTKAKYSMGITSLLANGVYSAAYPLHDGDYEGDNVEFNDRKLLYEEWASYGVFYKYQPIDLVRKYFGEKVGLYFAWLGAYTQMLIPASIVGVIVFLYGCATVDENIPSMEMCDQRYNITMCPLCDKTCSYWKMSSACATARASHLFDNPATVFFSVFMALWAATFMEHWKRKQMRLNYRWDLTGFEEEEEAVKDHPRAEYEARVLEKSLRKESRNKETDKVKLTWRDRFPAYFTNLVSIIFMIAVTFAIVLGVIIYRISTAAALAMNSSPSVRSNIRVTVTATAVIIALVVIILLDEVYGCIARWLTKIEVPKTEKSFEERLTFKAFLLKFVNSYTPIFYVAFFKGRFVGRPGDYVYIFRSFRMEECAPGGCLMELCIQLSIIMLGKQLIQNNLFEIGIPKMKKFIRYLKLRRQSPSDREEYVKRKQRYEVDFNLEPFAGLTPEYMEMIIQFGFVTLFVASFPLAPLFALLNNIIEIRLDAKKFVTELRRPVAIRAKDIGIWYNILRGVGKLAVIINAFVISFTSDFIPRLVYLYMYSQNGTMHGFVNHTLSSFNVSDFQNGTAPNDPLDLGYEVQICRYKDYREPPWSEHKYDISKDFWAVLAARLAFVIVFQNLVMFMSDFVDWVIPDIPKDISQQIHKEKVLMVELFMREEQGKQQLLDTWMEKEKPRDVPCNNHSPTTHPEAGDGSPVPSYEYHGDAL
# experimental_protocol: Inside-out patch recording of 1PBC block, mutant N546A
# Format: cell-based
# assay_context: -80 mV; 2 µM Ca2+
reported_endpoint: IC50 (nM)
Answer in nM, number only, no unit symbol.

IC50 reported for this compound N#Cc1c(C(F)(F)F)cc(O)n2c1nc1ccccc12 [1PBC] : 1720

All figures here come from paper PMC9120017.
